B1: TPRG1 (parent)
chain: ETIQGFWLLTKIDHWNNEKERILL

variants of: B1; assay: protein stability index of a GFP-peptide fusion (GPS, HEK-293T) (PSI 1-6); higher = more stable; conditions: c terminus: a fixed tail appended;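 further: lentivirally expressed fusions sorted by FACS into six bins by GFP to DsRed ratio, PSI derived from sequencing read proportions per bin multiplied by bin number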
assay-metric: protein stability index
The response must contain the number and no unit.

See these solved cases before continuing.
>  <sequence>
ETIQGFWLLTKIDHWNSEKERILL

>  <protein stability index>
2.2

$$$$
>  <sequence>
ETIQGFWLLTKIDHWNNEKERDLL

>  <protein stability index>
1.01

$$$$
>  <sequence>
ETQQGFWLLTKIDHWNNEKERILL

>  <protein stability index>
1.99

$$$$
>  <sequence>
ETIQGFWLLTKIWHWNNEKERILL

>  <protein stability index>
2.98

$$$$
>  <sequence>
ETIQGFWLLTKIDHWNNEKERGLL

>  <protein stability index>
1.89

$$$$

[Q] Look up protein stability index: TTIQGFWLLTKIDHWNNEKERILL
[A] 1.82

[Q] // next record ETIQGFWLLTKIDHWNNEKPRILL
[A] 2.37

[Q] // next record ETIQGFWLLIKIDHWNNEKERILL
[A] 3.71

[Q] // next record ETIQGFWLLTKIDHWNNEWERILL
[A] 2.92

[Q] // next record ETIQGFWKLTKIDHWNNEKERILL
[A] 3.05

[Q] // next record ETIQGFWLLTKIMHWNNEKERILL
[A] 1.04

[Q] // next record ETIQGFWQLTKIDHWNNEKERILL
[A] 1.53
